Each recorded value in this set is attributed to paper PMC7819943.

study_system: OsSMF1 (Oryza sativa, UniProt Q6ZLB0 1-436)
Sequence: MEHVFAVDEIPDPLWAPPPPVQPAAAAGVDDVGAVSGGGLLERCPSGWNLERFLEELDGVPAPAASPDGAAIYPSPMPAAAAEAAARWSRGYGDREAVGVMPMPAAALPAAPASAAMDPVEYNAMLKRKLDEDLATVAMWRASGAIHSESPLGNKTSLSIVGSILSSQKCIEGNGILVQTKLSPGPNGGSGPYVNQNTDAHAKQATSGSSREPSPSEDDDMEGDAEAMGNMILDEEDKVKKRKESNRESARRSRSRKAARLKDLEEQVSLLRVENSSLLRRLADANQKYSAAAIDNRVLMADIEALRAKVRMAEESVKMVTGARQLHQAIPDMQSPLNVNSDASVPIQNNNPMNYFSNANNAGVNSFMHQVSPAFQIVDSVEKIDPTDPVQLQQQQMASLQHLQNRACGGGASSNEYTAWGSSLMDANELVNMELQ
assay_text: protein-binding microarray (RPBM); PBS, 2% BSA, 51.3 ng/ul salmon testes DNA, 50 uM zinc acetate, 200 nM TF, 25 C, 1 h; high values mean tight binding
condition_notes: protein: recombinant; tags: N-terminal polyhistidine and DsRed monomer fusion (pET32a); chain copies: 2; label: CyDye5-dUTP incorporated in the synthesized complementary strand; 3' TTTTT single-stranded linker to array surface; dsDNA, one strand shown
In all, about 39,000 sequences were measured (“fluorescence intensity (a.u.)”: median about 4,300, highest 2% from about 39,000 on). The sample holds the highest values, similar sequences and a random draw of the others, so the mix is not that of the screen.
endpoint_label: binding signal

Reference set, count: 5
## Input Determine its reported binding signal: GATAGGAGGGGATAACTTGTTTCATATTTTGTGCCGGGTTCGGAGTCACCTAGTGCAG
## Output 3710 fluorescence intensity (a.u.)

## Input Respond only with binding signal recorded for TAACATCATGTCTAGTTTGTTACCCTATCAAGACTAAAACCGGAGTCACCTAGTGCAG
## Output 42600 fluorescence intensity (a.u.)

## Input Give recorded binding signal. TGAACACGAACGCGACGCTTCTTCTGTCACGTACGCCCGTCGGAGTCACCTAGTGCAG
## Output 3200 fluorescence intensity (a.u.)

## Input Indicate the recorded binding signal value for this sequence: ATGGCGCGCCGCCACGTCACCCCGACTCGCCACGTCAGCACGGAGTCACCTAGTGCAG
## Output 65500 fluorescence intensity (a.u.)

## Input Return the recorded binding signal value; entry: GTCCCTATCACATCGGATGTTTGAACAAAACAGAATATACCGGAGTCACCTAGTGCAG
## Output 45600 fluorescence intensity (a.u.)

***
## Input Fill in reported binding signal for this entry: CCCGTCGTTGTCCACCCCGTCCCATTCCACGACCGTCGTCCGGAGTCACCTAGTGCAG
## Output 3390 fluorescence intensity (a.u.)

## Input Return binding signal (reported value) for this sequence: CTCTCTCCTCGTCTTCCTCGCGCTGACTCTTCTCCTCCTCCGGAGTCACCTAGTGCAG
## Output 3180 fluorescence intensity (a.u.)

## Input Assign binding signal to the following record: AACCGAATCCAATCGAGCTCAGGACGAGGCGGAGGAGGAGCGGAGTCACCTAGTGCAG
## Output 42900 fluorescence intensity (a.u.)

## Input Provide one value: measured binding signal of TATAGTTGTGTACTAGTGTCACTCACGCCACCCGTCTCATCGGAGTCACCTAGTGCAG
## Output 3670 fluorescence intensity (a.u.)

## Input Item TTGCACATGCTGATTATTACATATTGCTACGTCCTTTTGCCGGAGTCACCTAGTGCAG : provide binding signal
## Output 3230 fluorescence intensity (a.u.)

## Input Return binding signal (reported value) for this sequence: GGTTTTGGAGAGCGGTTTCACTGACGTGGCAGTGTTGACCCGGAGTCACCTAGTGCAG
## Output 22900 fluorescence intensity (a.u.)

## Input Consider the sequence CGGTCGGTCCATCGCCCTCCGTCCCCATCCCCACCGTCACCGGAGTCACCTAGTGCAG and give its recorded binding signal.
## Output 41900 fluorescence intensity (a.u.)

## Input Answer with reported binding signal of CCGTCGCCGCCAAGCATCGAGCCGCCGGCCACAGCAGCCGCGGAGTCACCTAGTGCAG
## Output 42100 fluorescence intensity (a.u.)

* * *

Measured binding signal of individual entries
study_system: OsSMF1 (Oryza sativa, UniProt Q6ZLB0 1-436)
Sequence: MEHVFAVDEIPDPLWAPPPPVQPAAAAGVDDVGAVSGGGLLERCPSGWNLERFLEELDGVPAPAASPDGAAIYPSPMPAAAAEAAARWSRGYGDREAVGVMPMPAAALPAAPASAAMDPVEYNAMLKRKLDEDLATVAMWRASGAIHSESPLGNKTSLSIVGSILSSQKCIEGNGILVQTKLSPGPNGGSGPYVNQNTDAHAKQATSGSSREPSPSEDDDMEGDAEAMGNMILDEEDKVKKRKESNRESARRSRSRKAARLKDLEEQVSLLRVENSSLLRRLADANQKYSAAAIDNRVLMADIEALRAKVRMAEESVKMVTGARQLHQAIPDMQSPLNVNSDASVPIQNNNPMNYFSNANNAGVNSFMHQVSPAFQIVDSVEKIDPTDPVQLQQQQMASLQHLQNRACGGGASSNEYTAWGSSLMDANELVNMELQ
assay_text: protein-binding microarray (RPBM); PBS, 2% BSA, 51.3 ng/ul salmon testes DNA, 50 uM zinc acetate, 200 nM TF, 25 C, 1 h; high values mean tight binding
condition_notes: protein: recombinant; tags: N-terminal polyhistidine and DsRed monomer fusion (pET32a); chain copies: 2; label: CyDye5-dUTP incorporated in the synthesized complementary strand; 3' TTTTT single-stranded linker to array surface; dsDNA, one strand shown
Whole data set: some 39,000 sequences, median “fluorescence intensity (a.u.)” near 4,300, cut for the highest 2% near 39,000. The full list was thinned out, with the highest values kept by preference.

## Input Give binding signal for the following sequence: CCTTCCCTAGGGGCGGAGCCACGTAGCTTGGGCCCCACACCGGAGTCACCTAGTGCAG
## Output 6430 fluorescence intensity (a.u.)

## Input Report measured binding signal; entry is CCCTCCCTCCGCCTCCGCCCATCCAATTTCTTACCCCGTTCGGAGTCACCTAGTGCAG
## Output 3230 fluorescence intensity (a.u.)

## Input Give a short answer stating reported binding signal for GCGGCGCGACAGCGACAAAGCGCACGCGCGCGGCGAGCTGCGGAGTCACCTAGTGCAG .
## Output 30800 fluorescence intensity (a.u.)

## Input Given the sequence TATATATTATACCATTAATGACTGATCCTACCCTCTCATACGGAGTCACCTAGTGCAG , write its reported binding signal.
## Output 3290 fluorescence intensity (a.u.)

## Input Specify measured binding signal for AATATTCTCTGTCTCGGTGTGGTGTCTCTCCTCTGACGGCCGGAGTCACCTAGTGCAG .
## Output 4810 fluorescence intensity (a.u.)

New cases:
## Input Read off the recorded binding signal for TCCAATCAGACGACTATTCCTATGTTTTACAATTCTCTATCGGAGTCACCTAGTGCAG
## Output 51200 fluorescence intensity (a.u.)

## Input Return binding signal for the following sequence: TGTGGTGGCGAGCGGCACGGAGGCGGGGCGGTGGAGGGAGCGGAGTCACCTAGTGCAG
## Output 3980 fluorescence intensity (a.u.)

## Input Provide measured binding signal value, entry: CAGTTAACCACCTAACTGATCAAACTCATTCATGTCACTCCGGAGTCACCTAGTGCAG
## Output 5110 fluorescence intensity (a.u.)

## Input Item CTGTAGAACTTGGACCAGCAGCATCAGCAGTAGTAGCAGGCGGAGTCACCTAGTGCAG : provide binding signal
## Output 3140 fluorescence intensity (a.u.)

## Input Respond only with binding signal recorded for CCGCGCCACCTCATGCCGTGACGTGCAGATCCCCTCCTCCCGGAGTCACCTAGTGCAG
## Output 7890 fluorescence intensity (a.u.)

## Input Return value of binding signal for input CTCCGTCCACTGGACAGGGCAGAGGCTGCCTACCAGACACCGGAGTCACCTAGTGCAG , no commentary.
## Output 4640 fluorescence intensity (a.u.)

## Input Return value of binding signal for input CAAACTTCTAACCTTTTCATCACATCAAAACTTTTCTATACGGAGTCACCTAGTGCAG , no commentary.
## Output 63600 fluorescence intensity (a.u.)

## Input Input ACTTTCACAAAACTATACACATATCACTTTTCAATAAATACGGAGTCACCTAGTGCAG , output reported binding signal.
## Output 19900 fluorescence intensity (a.u.)

## Input Return the recorded binding signal value; entry: GTGCTGGCCAAATGGGCCGGGCCAAGGCCTCGGTAACCACCGGAGTCACCTAGTGCAG
## Output 42300 fluorescence intensity (a.u.)

## Input For TACTTTAAATGTGTGTCCGTATATCCGATGTGACACGCCACGGAGTCACCTAGTGCAG , write its binding signal.
## Output 3870 fluorescence intensity (a.u.)
